For each entry below, report its IC50 value.
Target sequence: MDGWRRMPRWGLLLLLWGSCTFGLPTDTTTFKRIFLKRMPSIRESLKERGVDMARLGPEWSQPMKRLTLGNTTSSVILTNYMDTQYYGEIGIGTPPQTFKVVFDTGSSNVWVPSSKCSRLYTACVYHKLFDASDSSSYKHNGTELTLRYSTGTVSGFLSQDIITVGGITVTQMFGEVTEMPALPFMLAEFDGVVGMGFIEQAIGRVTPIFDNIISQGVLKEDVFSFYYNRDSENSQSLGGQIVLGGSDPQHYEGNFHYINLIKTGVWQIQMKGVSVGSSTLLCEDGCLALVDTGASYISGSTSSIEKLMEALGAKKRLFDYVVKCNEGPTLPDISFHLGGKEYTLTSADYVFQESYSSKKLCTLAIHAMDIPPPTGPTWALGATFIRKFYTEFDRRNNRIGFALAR
Square brackets hold non-standard residues; d marks the D form. Peptide text beside a SMILES is read from it. * marks the point of attachment. Leu(ol) = CC(C)C[C@H](N)CO; Boc = CC(C)(C)OC(=O)*
Answer format: number, then unit.

Request: Returns the measured IC50 for the input compound. Input: "CC(C)C[C@@H](CO)C(=O)N[C@H](Cc1c[nH]cn1)C(=O)N[C@H](Cc1ccccc1)C(=O)NCC(C)(C)C"
Result: 20 µM

Request: Data request, read-out IC50, for CC(C)C[C@@H](CO)NC(=O)[C@H](Cc1cnc[nH]1)NC(=O)[C@H](Cc1ccccc1)NC(=O)OC(C)(C)C (Boc-Phe-His-[Leu(ol)])
Result: 16 µM

Where do these numbers come from? They come from ChEMBL document CHEMBL1153261.
